# PROCEDURE_TEXT: qHTS RealTime-Glo MT Cell Viability Assay in HEK293 cells - 32 hour (AID 1224868); further: top concentration of the series differs between compounds; on the % scale 0 is the no-effect control and ±100 the full control effect; nearly all actives have a fitted effect of over 50% in size
# STATED_CONDITIONS: RealTime-Glo luminescence; series mostly up to 76.8 µM
Records with an inconclusive call do not appear. Activity calls are given as the source filed them. The call rests on the fitted dose curve; in most records, active means well fitted cell-killing curve with a large enough effect in the repeat runs; inconclusive means weak or mixed curves, or effect the other way; inactive means flat fitted curve, though single readings scatter.
QUANTITY: activity change, negative = cytotoxic

// solved cases for activity change, negative = cytotoxic follow
C=CCS(=O)(=O)O	inactive
NS(=O)(=O)c1cc(C(=O)O)cc(N2CCCC2)c1Oc1ccccc1	inactive
N#Cc1ccc(C2CCCc3cncn32)cc1 (stereo not drawn)	inactive
CCCCNC(=O)NCCCC	inactive
CO[Si](CCCOCC1CO1)(OC)OC (stereo not drawn)	inactive

Please give the measured activity change, negative = cytotoxic for this molecule: `COC(=O)NN` inactive

Please give the measured activity change, negative = cytotoxic for this molecule: `CC(C)c1cc2c(cc1S(=O)(=O)O)[C@@]1(C)CCC[C@@](C)(C(=O)O)[C@@H]1CC2` inactive

* * *

# PROCEDURE_TEXT: qHTS assay for small molecule agonists of the antioxidant response element (ARE) signaling pathway - cell viability counter screen (AID 743203); further: on the % scale 0 is the no-effect control and ±100 the full control effect; nearly all actives have a fitted effect of over 55% in size
# STATED_CONDITIONS: ARE-bla HepG2 viability, CellTiter-Glo luminescence, 16 h; series mostly up to 73.3 µM
Results filed as inconclusive are left out. Activity calls are given as the source filed them. Calls follow the shape of the full dose curve.
QUANTITY: viability change, negative = cytotoxic

CC(C)(O)C(=O)c1ccccc1	inactive
C[N+](C)(C)CC(O)CC(=O)[O-] (configuration not stated)	inactive
CC(C)OC(=O)c1ccccc1	inactive
COc1ccc2c(c1)c(CC(=O)OCC(=O)O)c(C)n2C(=O)c1ccc(Cl)cc1	inactive
COC(=O)NN	inactive
Cc1cccn2c(=O)c(-c3nnn[nH]3)cnc12	inactive

Please give the measured viability change, negative = cytotoxic for this compound: `CN(C)CCCNCCCN(C)C` inactive

* * *

# TARGET_OR_SYSTEM: Nuclear receptor subfamily 1 group I member 2 (Rattus norvegicus) (UniProt Q9R1A7)
# Sequence (Q9R1A7 whole entry, looked up): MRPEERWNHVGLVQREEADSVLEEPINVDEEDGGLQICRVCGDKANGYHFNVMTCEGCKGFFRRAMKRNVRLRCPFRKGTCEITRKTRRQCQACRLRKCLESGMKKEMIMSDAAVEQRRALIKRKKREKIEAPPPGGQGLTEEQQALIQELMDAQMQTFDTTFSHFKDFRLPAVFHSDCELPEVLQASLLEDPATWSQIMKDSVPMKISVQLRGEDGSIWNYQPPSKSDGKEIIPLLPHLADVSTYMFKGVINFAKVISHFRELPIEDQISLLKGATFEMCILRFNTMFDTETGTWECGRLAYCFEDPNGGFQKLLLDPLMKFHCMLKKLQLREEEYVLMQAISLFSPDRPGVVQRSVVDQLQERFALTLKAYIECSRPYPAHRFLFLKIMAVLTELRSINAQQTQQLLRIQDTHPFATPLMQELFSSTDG
# PROCEDURE_TEXT: Rat pregnane X receptor (rPXR) activation by small molecules, qHTS assay (AID 1346983); further: on the % scale 0 is the no-effect control and ±100 the full control effect; nearly all actives have a fitted effect of over 20% in size
# STATED_CONDITIONS: rPXR luciferase reporter cells, One-Glo luminescence, 24 h; stronger effect = higher value
Results filed as inconclusive are left out.
QUANTITY: max activation (%)
Answer format: numeric, % implied, no suffix.

CCCC(=O)O[C@]1(C(=O)CO)CC[C@H]2[C@@H]3CCC4=CC(=O)CC[C@]4(C)[C@H]3[C@@H](O)C[C@@]21C	8.95
CN(C(=O)c1c(O)c2ccccc2n(C)c1=O)c1ccccc1	-3.59
CCOC(=O)Nc1ccc(NCc2ccc(F)cc2)nc1N	1.97

Please give the measured max activation for this molecule: CC(C)NCC(O)c1ccc(NS(C)(=O)=O)cc1 (stereo unspecified) -1.64

Please give the measured max activation for this molecule: `C[C@@H]1CCN(C(=O)[C@H](CCCN=C(N)N)NS(=O)(=O)c2cccc3c2NC[C@H](C)C3)[C@@H](C(=O)O)C1` -0.172

Please give the measured max activation for this molecule: `Cc1c(NC(C)C)c(=O)n(-c2ccccc2)n1C` -1.85

* * *

# PROCEDURE_TEXT: qHTS assay to identify small molecule agonists of the peroxisome proliferator-activated receptor delta (PPARd) signaling pathway - cell viability counter screen (AID 743211); further: on the % scale 0 is the no-effect control and ±100 the full control effect; nearly all actives have a fitted effect of over 55% in size
# STATED_CONDITIONS: PPARd-bla HEK293H viability, CellTiter-Glo luminescence, 17 h; series mostly up to 62.6 µM
Records with an inconclusive call do not appear. Calls of active or inactive are those of the source. Calls come from the whole dose curve; as a rule, active = well fitted cell-killing curve with a large enough effect in the repeat runs; inconclusive = weak or mixed curves; inactive = no such curve, though single readings can be large or run the other way.
QUANTITY: activity change, negative = cytotoxicity

// solved cases for activity change, negative = cytotoxicity follow
COC(=O)c1cc(C(=O)OC)cc(S(=O)(=O)O)c1	inactive
COc1c(N2C[C@@H]3CCCN[C@@H]3C2)c(F)cc2c(=O)c(C(=O)O)cn(C3CC3)c12	inactive
NC(=O)c1ccc([N+](=O)[O-])cc1	inactive
CC(C)NCCCC1(C(N)=O)c2ccccc2-c2ccccc21	inactive

Please give the measured activity change, negative = cytotoxicity for this molecule: `CCCCCCCCCCCCCCCCC` inactive

Please give the measured activity change, negative = cytotoxicity for this molecule: `CN1CCCC1` inactive

Please give the measured activity change, negative = cytotoxicity for this molecule: CCC(=O)OC(C)c1ccccc1 (stereo not given) inactive

Please give the measured activity change, negative = cytotoxicity for this molecule: Nc1c2c(nc3ccccc13)CCCC2O (stereo not given) inactive

Please give the measured activity change, negative = cytotoxicity for this molecule: `CC(=O)Nc1ccc(S(N)(=O)=O)cc1` inactive

Please give the measured activity change, negative = cytotoxicity for this molecule: `CCCCCCCCS(=O)(=O)Cl` inactive

Please give the measured activity change, negative = cytotoxicity for this molecule: `CC(=O)Nc1c(I)cc(I)c(C(=O)O)c1I` inactive

Please give the measured activity change, negative = cytotoxicity for this molecule: `CC(=O)OC/C=C(\C)CC/C=C(\C)CCC=C(C)C` inactive

Please give the measured activity change, negative = cytotoxicity for this molecule: COC(C)(C)CCCC(C)CC=O (stereo not given) inactive

Please give the measured activity change, negative = cytotoxicity for this molecule: COc1ccccc1OCC(O)CN1CCN(CC(=O)Nc2c(C)cccc2C)CC1 (stereo not given) inactive

Please give the measured activity change, negative = cytotoxicity for this molecule: C=COCC1CCC(CO)CC1 (stereo not given) inactive

Please give the measured activity change, negative = cytotoxicity for this molecule: `COc1cc(C(=O)N2CCCCCCC2)cc(OC)c1OC` inactive

Please give the measured activity change, negative = cytotoxicity for this molecule: CC(C)NCC(O)c1ccc(NS(C)(=O)=O)cc1 (stereo not given) inactive

Please give the measured activity change, negative = cytotoxicity for this molecule: CCO[Si](CCC1CCC2OC2C1)(OCC)OCC (stereo not given) inactive

Please give the measured activity change, negative = cytotoxicity for this molecule: O=C1CC2CC1C1CCCC21 (stereo not given) inactive

Please give the measured activity change, negative = cytotoxicity for this molecule: `Cc1ccc(C#N)cc1` inactive

Please give the measured activity change, negative = cytotoxicity for this molecule: O=C1OC(=O)C2CCCCC12 (stereo not given) inactive

Please give the measured activity change, negative = cytotoxicity for this molecule: `Nc1cc(=O)[nH]c(N)n1` inactive

Please give the measured activity change, negative = cytotoxicity for this molecule: `COc1ccc2c(c1)CCCC2=O` inactive

Please give the measured activity change, negative = cytotoxicity for this molecule: `c1ccc(CC2=NCCN2)cc1` inactive

Please give the measured activity change, negative = cytotoxicity for this molecule: `CC(=O)CC(C)(C)C1CCCCC1` inactive

* * *

# PROCEDURE_TEXT: qHTS assay for small molecules that induce genotoxicity in human embryonic kidney cells expressing luciferase-tagged ATAD5 - cell viability (AID 651634); further: on the % scale 0 is the no-effect control and ±100 the full control effect; nearly all actives have a fitted effect of over 25% in size
# STATED_CONDITIONS: HEK293T ATAD5-luc cells viability, CellTiter-Fluor, 15.5 h; series mostly up to 83.3 µM
Results filed as inconclusive are left out. Activity calls are given as the source filed them. The call rests on the fitted dose curve.
QUANTITY: activity, negative = cytotoxicity

O=C(O)COc1nn(Cc2ccccc2)c2ccccc12	inactive
C=COCC1CCC(CO)CC1 (centres undefined)	inactive
C=C1CC[C@H]2C[C@@H]1C2(C)C	inactive
OCCOc1ccc(OCCO)cc1	inactive
COC(=O)CC(C)=O	inactive

Please give the measured activity, negative = cytotoxicity for this compound: `CC(C)c1cc2c(cc1S(=O)(=O)O)[C@@]1(C)CCC[C@@](C)(C(=O)O)[C@@H]1CC2` inactive

Please give the measured activity, negative = cytotoxicity for this compound: COCCc1ccc(OCC(O)CNC(C)C)cc1 (centres undefined) inactive

Please give the measured activity, negative = cytotoxicity for this compound: `CC(C)(C)c1nnc(NS(=O)(=O)c2ccccc2)s1` inactive

Please give the measured activity, negative = cytotoxicity for this compound: CO[Si](CCCOCC1CO1)(OC)OC (centres undefined) inactive

Please give the measured activity, negative = cytotoxicity for this compound: `CCOc1ccc(C(=O)OCCN(CC)CC)cc1` inactive

Please give the measured activity, negative = cytotoxicity for this compound: `CCOC(=O)Nc1ccc(NCc2ccc(F)cc2)nc1N` inactive

Please give the measured activity, negative = cytotoxicity for this compound: O=C1OC(=O)C2CCCCC12 (centres undefined) inactive

Please give the measured activity, negative = cytotoxicity for this compound: `CCc1ccc(O)c(OC)c1` inactive

Please give the measured activity, negative = cytotoxicity for this compound: CCCCC(CC)COC(=O)c1ccccc1O (centres undefined) inactive

Please give the measured activity, negative = cytotoxicity for this compound: CCC(C)C1CCCCC1=O (centres undefined) inactive

Please give the measured activity, negative = cytotoxicity for this compound: `OC[C@]1(O)OC[C@@H](O)[C@H](O)[C@@H]1O` inactive

Please give the measured activity, negative = cytotoxicity for this compound: `Cc1[nH]c(=O)c(C#N)cc1-c1ccc2nccn2c1` inactive

Please give the measured activity, negative = cytotoxicity for this compound: `COc1c(N2C[C@@H]3CCCN[C@@H]3C2)c(F)cc2c(=O)c(C(=O)O)cn(C3CC3)c12` inactive

Please give the measured activity, negative = cytotoxicity for this compound: `O=Cc1cccc([N+](=O)[O-])c1` inactive

Please give the measured activity, negative = cytotoxicity for this compound: COC(=O)c1ccc(C)cc1C1=NC(C)(C(C)C)C(=O)N1 (centres undefined) inactive

Please give the measured activity, negative = cytotoxicity for this compound: CC(C[N+](C)(C)C)OC(N)=O (centres undefined) inactive

Please give the measured activity, negative = cytotoxicity for this compound: `COC(=O)NN` inactive

Please give the measured activity, negative = cytotoxicity for this compound: COc1ccc(CCN(C)CCCC(C#N)(c2cc(OC)c(OC)c(OC)c2)C(C)C)cc1OC (centres undefined) inactive

Please give the measured activity, negative = cytotoxicity for this compound: `CCN1CCC[C@H]1CNC(=O)c1c(O)c(Cl)cc(Cl)c1OC` inactive

Please give the measured activity, negative = cytotoxicity for this compound: Nc1c2c(nc3ccccc13)CCCC2O (centres undefined) inactive

Please give the measured activity, negative = cytotoxicity for this compound: `CCN(CC)CCNC(=O)c1cc(S(C)(=O)=O)ccc1OC` inactive

Please give the measured activity, negative = cytotoxicity for this compound: `CCCCNC(=O)NCCCC` inactive

Please give the measured activity, negative = cytotoxicity for this compound: OC1CCCCC1c1ccccc1 (centres undefined) inactive

Please give the measured activity, negative = cytotoxicity for this compound: `O=C1CCCN1C1CCCCC1` inactive
